Origin of measurements: ChEMBL document CHEMBL1201862

tested on: HOP-62; experiment: NCI tumour cell line growth inhibition, 48 h
The source made the active and inactive calls. Rule as the data show it: active = GI50 up to about 1.1 µM and inactive = higher.
Choose one outcome from this list and give only that: t for active, f for inactive

Please state the recorded outcome for this compound: `Cc1ccc([N+](=O)[O-])cc1NC(=O)C(=O)Cc1cc(=O)oc2cc(O)ccc12`
f

Now consider `c1ccc2c(c1)-c1ccccc1C2N1CC2CCC(CC2)C1` and answer again.
f

Now consider `COc1c(C2(c3ccc(F)cc3)SCCCS2)c(=O)c1=O` and answer again.
f

Now consider `C=C(COC(=O)C(C)C)[C@H]1Oc2ccc(C(C)=O)cc2[C@@H]1OC(=O)C(C)C` and answer again.
f

Now consider `C=CCOC(=O)C1=C(CCC[C@@H](C)O[Si](C)(C)C(C)(C)C)N=C(N)N2[C@H](CCO)CC[C@@H]12` and answer again.
f

Now consider CC(Cc1ccc(Cl)cc1Cl)NO (stereo not given) and answer again.
f

Now consider `CCCCC#C[I+]c1ccccc1` and answer again.
f

Now consider `CCOc1cccc2nc3cccc(C(=O)NCCN(C)C)c3nc12` and answer again.
t

Now consider `Cc1nc(C(N)=S)sc1C(=O)C/C(=N/N)C(=O)Nc1cccc(Cl)c1C` and answer again.
f

Now consider `COc1cc2c(c3nc4ccccc4nc13)-c1ccc(SC)c(=O)cc1[C@@H](NC(C)=O)CC2` and answer again.
t
